These entries and their values trace back to the supplement of paper PMC10065799.

TEST TARGET: FGFR1 (UniProt P11362)
Sequence (P11362 whole entry, looked up): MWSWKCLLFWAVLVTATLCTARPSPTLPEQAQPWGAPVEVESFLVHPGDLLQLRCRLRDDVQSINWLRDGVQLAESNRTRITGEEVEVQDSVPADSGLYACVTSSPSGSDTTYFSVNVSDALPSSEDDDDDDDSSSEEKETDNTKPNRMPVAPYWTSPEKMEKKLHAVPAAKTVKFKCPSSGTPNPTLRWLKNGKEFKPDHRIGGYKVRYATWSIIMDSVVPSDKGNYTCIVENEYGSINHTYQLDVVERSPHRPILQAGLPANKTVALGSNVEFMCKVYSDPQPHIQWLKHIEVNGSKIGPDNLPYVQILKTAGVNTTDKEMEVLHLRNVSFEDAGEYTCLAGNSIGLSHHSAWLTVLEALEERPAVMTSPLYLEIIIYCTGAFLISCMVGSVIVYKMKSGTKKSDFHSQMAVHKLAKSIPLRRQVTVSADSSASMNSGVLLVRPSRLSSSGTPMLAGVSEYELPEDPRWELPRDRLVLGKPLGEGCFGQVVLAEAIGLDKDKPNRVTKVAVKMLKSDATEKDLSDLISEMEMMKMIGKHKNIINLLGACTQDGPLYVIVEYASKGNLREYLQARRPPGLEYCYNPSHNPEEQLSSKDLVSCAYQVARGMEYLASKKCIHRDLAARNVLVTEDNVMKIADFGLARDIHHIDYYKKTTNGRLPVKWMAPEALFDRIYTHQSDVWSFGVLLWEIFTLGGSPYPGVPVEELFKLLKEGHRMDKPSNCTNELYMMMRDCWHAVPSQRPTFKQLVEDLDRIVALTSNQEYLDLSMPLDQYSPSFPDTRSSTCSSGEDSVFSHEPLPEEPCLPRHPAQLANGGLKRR
ASSAY NOTES: phosphorylation enrichment, bacterial display (enrichment ratio); higher = better substrate or ligand; peptides without Tyr show the background;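 note: 11-residue human phosphosite peptides and single-mutation variants displayed on the E. coli surface, counted by deep sequencing, each peptide's frequency after selection divided by its frequency in the unselected input library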;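 note: frequency after pTyr selection over input frequency; kinase dosed for 20-30% of maximal phosphorylation in three min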
Range-based classes on measured phosphorylation enrichment: low bin (below 0.4), mid bin (0.4 to below 0.6), high bin (0.6 or more)

1) HFVDEYDLTIE [KRAS_Y32_P34L]: high bin
2) KWHREYNFKYV [RICTOR_Y835_S837F]: low bin
3) YETSHYPASPD [CTNND2_Y1217]: mid bin
4) VDYQPYRKHKY [TEX37_Y28]: mid bin
5) VVQGLYKSMPK [KBTBD2_Y250]: low bin
6) ELPEKYSQNIF [PKP2_Y626_YF]: mid bin
7) TVINKYQGKLF [HGD_Y249]: mid bin
8) ENFDDYMKEVG [FABP4_Y20]: mid bin
9) HDRNTYEKFLE [TF_Y666_G671E_YF]: mid bin
10) QNTGVYYDLYG [PTPN11_Y62_D61V]: high bin
11) KLFFHYNPKLC [INSR_Y457]: mid bin
12) RLVTRYIYNRE [HLA-DQB1_Y62_Y58L]: high bin

* * *

TEST TARGET: Hck (UniProt P08631)
Sequence (P08631 whole entry, looked up): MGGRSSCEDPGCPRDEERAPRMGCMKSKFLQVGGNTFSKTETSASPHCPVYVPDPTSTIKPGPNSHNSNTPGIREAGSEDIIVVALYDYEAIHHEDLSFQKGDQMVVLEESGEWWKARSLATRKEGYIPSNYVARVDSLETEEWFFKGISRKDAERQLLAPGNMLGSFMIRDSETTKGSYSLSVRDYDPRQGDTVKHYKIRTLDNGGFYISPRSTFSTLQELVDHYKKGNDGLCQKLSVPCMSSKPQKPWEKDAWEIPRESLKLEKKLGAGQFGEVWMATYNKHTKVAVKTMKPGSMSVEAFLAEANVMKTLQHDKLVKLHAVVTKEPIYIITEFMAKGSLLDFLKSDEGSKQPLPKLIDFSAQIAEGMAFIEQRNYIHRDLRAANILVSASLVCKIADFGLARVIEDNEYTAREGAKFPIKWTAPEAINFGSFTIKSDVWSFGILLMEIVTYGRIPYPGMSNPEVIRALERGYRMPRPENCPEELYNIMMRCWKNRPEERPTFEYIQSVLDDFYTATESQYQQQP
ASSAY NOTES: phosphorylation enrichment, bacterial display (enrichment ratio); higher = better substrate or ligand; peptides without Tyr show the background
Range-based classes on measured phosphorylation enrichment: low (below 0.5), medium (0.5 to below 0.6), high (0.6 or more)

1. CTTIHYNYMYN [TP53_Y234_C238Y]: medium
2. TDKLFYIYTSG [SLC27A4_Y243]: medium
3. QMVDMYASSFM [AVPR2_Y124_G122D_YF]: high
4. GNFSGYDDAWD [POLR1C_Y36_YF]: low
5. RFLRGYQQDAF [HLA-A_Y137_R138Q_YF]: high
6. MSSHHYDFKKF [ZNF445_Y428_YF]: low
7. NNIDFYKNTTN [FGFR2_Y657_K659N_YF]: medium
8. RLGDLYEEEMR [VIM_Y150]: low
9. SAGSSYSISSI [PAX5_Y179_G183S]: low
10. SREALYNETDP [CACNA1A_Y794_M797T]: high
11. APEVIYATPGA [ABLtide_2014]: high
12. KRLWDYGMSSS [F8_Y1728_E1723K]: low

* * *

// reported phosphorylation enrichment per item
Test system: c-Abl (mouse)
ASSAY NOTES: phosphorylation enrichment, bacterial display (enrichment ratio); higher = better substrate or ligand; peptides without Tyr show the background
OBSERVABLE: phosphorylation enrichment

1) AGQEKYSAMRD [HRAS_Y64_E63K]: 0.604
2) YDEYRYRSFIK [CFTR_Y517_V520F]: 0.957
3) VPLATYMRIFK [RPL21_Y30_YF]: 0.477
4) DDFNLYINVKL [MTHFD1_Y52_S49F]: 0.984
5) QTPVLYAMLDH [MPZ_Y220]: 2.67
6) KFRREYILSLE [GPC3_Y299_W296R_YF]: 0.601
7) SVTCTHSPALN [TP53_Y126_Y126H]: 0.818
8) SQSPHYFRSGR [GPATCH8_Y1038]: 0.544
9) YYHCTYKQRMI [CLEC12A_Y242_K244Q]: 1.4
10) SHTPSYCDESL [RITA1_Y109]: 0.566
11) LERFIYNREEF [HLA-DPB1_Y59_F64Y_YF]: 0.857
12) VTSLKYSTPPF [BRIP1_Y916_S919P_YF]: 0.595
13) FKELVYETVRV [FSHB_Y76]: 18
14) KVKGEYDMTVP [AHNAK_Y964]: 0.372
15) RTTIHYNYMCN [TP53_Y234_C229R]: 1.2
16) SLLTDYSPQLQ [OTC_Y345]: 0.483
17) FVPAAYVKKLD [SPTAN1_Y1020]: 0.651
18) HEGKIYEYNQV [ZNF665_Y162]: 5.38
19) MKALGYFAVVT [OPA1_Y498]: 0.892
20) RRLEPYGENFN [APOA4_Y310_V307L]: 0.371
21) STEVIYQPRRK [STK11_Y36]: 1
22) SAEEDYKADAK [KCNT1_Y876_M877K]: 0.831
23) FGSVMYEFVGK [SLC18A1_Y251]: 1.3
24) DGTIVCTGLET [USH2A_Y4487_Y4487C]: 0.837
25) RLVTRYIYNRE [HLA-DQB1_Y62_Y58L]: 0.447
26) FVTSMYNEILM [TRPV1_Y310]: 0.832
27) LRFEVYGGENE [STOX1_Y610_YF]: 0.925
28) GPQGVYSNKLV [PTPN14_Y506]: 0.537
29) LDFNEYFRDLN [HPRT1_Y198_YF]: 0.606
